- Experiment notes: qHTS Assay for Lipid Storage Modulators in Drosophila S3 Cells
- Condition context: BODIPY lipid droplet fluorescence, 18-24 h, cells fed with added oleic acid; series mostly up to 46.1 µM
Hit rate of the full screen: of about 320,000 compounds, about 2,100 (0.66%) were called active. Inconclusive results (about 53%) are left out. Calls come from the whole dose curve; as a rule, active = well fitted inhibition curve with a large enough effect in the signal ratio, with a control signal flat (not every such curve was filed as active); inconclusive = small, poorly fitted or top-dose-only effect, or effect the other way, or a change in a side signal; inactive = flat fitted curve, though single readings scatter; the % refers to the signal ratio. For the sample, actives were picked, then their nearest neighbours and some compounds at random.
Hi there, use one of these labels in your reply, thanks! YES = active, NO = inactive

Q) Kindly provide the recorded test outcome for the following compound: CC(=O)c1ccccc1C(=O)N1CCCC(CNC(=O)c2ccccc2Cl)C1 (stereo unspecified)
A) NO

Q) CCCn1c(C)cc(C(=O)COc2ccc(S(=O)(=O)N(CC)CC)cc2[N+](=O)[O-])c1C ?
A) YES

Q) Cn1c(=O)c(/C=C/c2ccc(F)cc2)nc2ccccc21 ?
A) NO

Q) C=C(C)Cn1c(CN(C)Cc2ccccc2)nc2c1c(=O)n(C)c(=O)n2C ?
A) YES

Q) Cc1ccccc1NC(=O)/C=C/c1cccs1 ?
A) NO

Q) O=c1c2[nH]c3ccc(F)cc3c2ncn1Cc1ccncc1 ?
A) NO

Q) O=C(Nc1ccc(F)cc1)N1CCCCCC1 ?
A) NO

Q) C[C@H](NC(=O)C1CCN(S(=O)(=O)c2ccccc2)CC1)C(=O)NCc1ccc(F)cc1 ?
A) NO

Q) O=C(O)C1CCCN1C(=O)Nc1ccc(F)cc1 (stereo unspecified) ?
A) YES

Q) c1ccc2cc(OCc3nc4ccccc4[nH]3)ccc2c1 ?
A) NO

Q) O=C(NCCCCO)c1ccc2c3c(cccc13)CC2 ?
A) NO

Q) COc1ccccc1NS(=O)(=O)c1ccc2[nH]c(=O)[nH]c2c1 ?
A) NO

Q) CC(C)Cn1c(CN(C)Cc2ccccc2)nc2c1c(=O)n(C)c(=O)n2C ?
A) NO

Q) CC(=O)Nc1ccc(S(=O)(=O)N(C)CC(=O)OCC(=O)N2CCc3ccccc32)cc1 ?
A) YES

Q) CC1CC(C)CN(C(=O)COC(=O)c2nn(C)c(=O)c3ccccc23)C1 (stereo unspecified) ?
A) NO

Q) COc1cccc(NC(=O)Cn2c3ccccc3c3nc4n(c(=O)c32)CCCS4)c1 ?
A) NO

Q) Cc1ccccc1NC(=O)/C=C/c1ccc([N+](=O)[O-])s1 ?
A) YES

Q) CSc1ccc(NC(=O)N2CCN(c3nc4ccccc4s3)CC2)cc1 ?
A) NO
